Molecular target: Tubulin
Assay: Inhibition of tubulin (unknown origin) polymerization
pIC50: −log10 of the molar value.
Observable: pIC50

Structure Notation: COc1ccc(C(=O)c2cc(OC)c(OC)c(OC)c2)cc1O
Numeric Readout: 5.47

----------
Tested on: A498
Experiment: Growth inhibition of human A498 cells at 10^-5 M after 48 hrs by SRB assay
Format: functional
Conditions: A498, 48 h, read-out: GI
Listing of entries alongside the reported inhibition of growth at 10 µM.
Observable: inhibition of growth at 10 µM (%)

Structure Notation: CCOC(=O)c1cc(C(=O)c2cc(OC)c(OC)c(OC)c2Br)n2ccc(OC)cc12
Numeric Readout: 23
//
Structure Notation: CCOC(=O)c1cc(C(=O)c2cc(OC)c(OC)c(OC)c2)n2c(C)cccc12
Numeric Readout: 100
//
Structure Notation: COC(=O)c1c(C(=O)OC)c2cc(OC)ccn2c1C(=O)c1ccc(OC)cc1
Numeric Readout: 7
//
Structure Notation: CCOC(=O)c1c2c(O)nnc(-c3cc(OC)c(OC)c(OC)c3)c2n2cc(C)cc(C)c12
Numeric Readout: 15
//
Structure Notation: CCOC(=O)c1cc(C(=O)c2cc(OC)c(OC)c(OC)c2)n2ccc(OC)cc12
Numeric Readout: 52
//
Structure Notation: CCOC(=O)c1cc(C(=O)c2ccc(OC)c(OC)c2)n2ccc(OC)cc12
Numeric Readout: 15
//
Structure Notation: COc1cc(C(=O)c2cc(C#N)c3c(C#N)cccn23)cc(OC)c1OC
Numeric Readout: 0
//
Structure Notation: COc1ccc(C(=O)c2cc(C#N)c3c(C)cc(C)cn23)cc1
Numeric Readout: 53
//
Structure Notation: CCOC(=O)c1cc(C(=O)c2cc(OC)c(OC)c(OC)c2)n2cccc(C#N)c12
Numeric Readout: 100
//
Structure Notation: CCOC(=O)c1cc(C(=O)c2ccc(OC)cc2)n2cc(C)cc(C)c12
Numeric Readout: 30
//
Structure Notation: COC(=O)c1c(C(=O)OC)c2cc(OC)ccn2c1C(=O)c1cc(OC)c(OC)c(OC)c1
Numeric Readout: 0
//
Structure Notation: COc1cc(C(=O)c2cc(C(=O)O)c3cccc(C)n23)cc(OC)c1OC
Numeric Readout: 2
